Assay: Pharmacokinetic analysis in rats
Type: in vivo, Male SD rats
Conditions: male, SD, rat, plasma, po, 5 mg/kg, PO, 5 mg/kg, read-out: F (oral bioavailability)
Procedure: 6. Pharmacokinetic Analysis Male SD rats were grouped, each group having 3 rats. […] Animals were fasted overnight from 10 hours before administration to 4 hours after administration. Blood samples were collected at 0.25, 0.5, 1, 2, 4, 8 and 24 hours after administration in the oral group and at 0.083, 0.25, 0.5, 1, 2, 4, 8 and 24 hours after injection in the intravenous group. […] The extract from the plasma extracted by protein precipitation was analyzed by LC/MS/MS.
Quantity: bioavailability
Note: a bare number is incomplete; add the unit.

The compound listed as `C[C@H]1COC(=O)c2cnn3ccc(nc23)N[C@H](C)c2cc(F)ccc2O1` shows bioavailability equal to 100%

====

Target: ROS1-G2032R (Homo sapiens (Human), UniProt P08922, G2032R)
Sequence (P08922 28-2347 G2032R): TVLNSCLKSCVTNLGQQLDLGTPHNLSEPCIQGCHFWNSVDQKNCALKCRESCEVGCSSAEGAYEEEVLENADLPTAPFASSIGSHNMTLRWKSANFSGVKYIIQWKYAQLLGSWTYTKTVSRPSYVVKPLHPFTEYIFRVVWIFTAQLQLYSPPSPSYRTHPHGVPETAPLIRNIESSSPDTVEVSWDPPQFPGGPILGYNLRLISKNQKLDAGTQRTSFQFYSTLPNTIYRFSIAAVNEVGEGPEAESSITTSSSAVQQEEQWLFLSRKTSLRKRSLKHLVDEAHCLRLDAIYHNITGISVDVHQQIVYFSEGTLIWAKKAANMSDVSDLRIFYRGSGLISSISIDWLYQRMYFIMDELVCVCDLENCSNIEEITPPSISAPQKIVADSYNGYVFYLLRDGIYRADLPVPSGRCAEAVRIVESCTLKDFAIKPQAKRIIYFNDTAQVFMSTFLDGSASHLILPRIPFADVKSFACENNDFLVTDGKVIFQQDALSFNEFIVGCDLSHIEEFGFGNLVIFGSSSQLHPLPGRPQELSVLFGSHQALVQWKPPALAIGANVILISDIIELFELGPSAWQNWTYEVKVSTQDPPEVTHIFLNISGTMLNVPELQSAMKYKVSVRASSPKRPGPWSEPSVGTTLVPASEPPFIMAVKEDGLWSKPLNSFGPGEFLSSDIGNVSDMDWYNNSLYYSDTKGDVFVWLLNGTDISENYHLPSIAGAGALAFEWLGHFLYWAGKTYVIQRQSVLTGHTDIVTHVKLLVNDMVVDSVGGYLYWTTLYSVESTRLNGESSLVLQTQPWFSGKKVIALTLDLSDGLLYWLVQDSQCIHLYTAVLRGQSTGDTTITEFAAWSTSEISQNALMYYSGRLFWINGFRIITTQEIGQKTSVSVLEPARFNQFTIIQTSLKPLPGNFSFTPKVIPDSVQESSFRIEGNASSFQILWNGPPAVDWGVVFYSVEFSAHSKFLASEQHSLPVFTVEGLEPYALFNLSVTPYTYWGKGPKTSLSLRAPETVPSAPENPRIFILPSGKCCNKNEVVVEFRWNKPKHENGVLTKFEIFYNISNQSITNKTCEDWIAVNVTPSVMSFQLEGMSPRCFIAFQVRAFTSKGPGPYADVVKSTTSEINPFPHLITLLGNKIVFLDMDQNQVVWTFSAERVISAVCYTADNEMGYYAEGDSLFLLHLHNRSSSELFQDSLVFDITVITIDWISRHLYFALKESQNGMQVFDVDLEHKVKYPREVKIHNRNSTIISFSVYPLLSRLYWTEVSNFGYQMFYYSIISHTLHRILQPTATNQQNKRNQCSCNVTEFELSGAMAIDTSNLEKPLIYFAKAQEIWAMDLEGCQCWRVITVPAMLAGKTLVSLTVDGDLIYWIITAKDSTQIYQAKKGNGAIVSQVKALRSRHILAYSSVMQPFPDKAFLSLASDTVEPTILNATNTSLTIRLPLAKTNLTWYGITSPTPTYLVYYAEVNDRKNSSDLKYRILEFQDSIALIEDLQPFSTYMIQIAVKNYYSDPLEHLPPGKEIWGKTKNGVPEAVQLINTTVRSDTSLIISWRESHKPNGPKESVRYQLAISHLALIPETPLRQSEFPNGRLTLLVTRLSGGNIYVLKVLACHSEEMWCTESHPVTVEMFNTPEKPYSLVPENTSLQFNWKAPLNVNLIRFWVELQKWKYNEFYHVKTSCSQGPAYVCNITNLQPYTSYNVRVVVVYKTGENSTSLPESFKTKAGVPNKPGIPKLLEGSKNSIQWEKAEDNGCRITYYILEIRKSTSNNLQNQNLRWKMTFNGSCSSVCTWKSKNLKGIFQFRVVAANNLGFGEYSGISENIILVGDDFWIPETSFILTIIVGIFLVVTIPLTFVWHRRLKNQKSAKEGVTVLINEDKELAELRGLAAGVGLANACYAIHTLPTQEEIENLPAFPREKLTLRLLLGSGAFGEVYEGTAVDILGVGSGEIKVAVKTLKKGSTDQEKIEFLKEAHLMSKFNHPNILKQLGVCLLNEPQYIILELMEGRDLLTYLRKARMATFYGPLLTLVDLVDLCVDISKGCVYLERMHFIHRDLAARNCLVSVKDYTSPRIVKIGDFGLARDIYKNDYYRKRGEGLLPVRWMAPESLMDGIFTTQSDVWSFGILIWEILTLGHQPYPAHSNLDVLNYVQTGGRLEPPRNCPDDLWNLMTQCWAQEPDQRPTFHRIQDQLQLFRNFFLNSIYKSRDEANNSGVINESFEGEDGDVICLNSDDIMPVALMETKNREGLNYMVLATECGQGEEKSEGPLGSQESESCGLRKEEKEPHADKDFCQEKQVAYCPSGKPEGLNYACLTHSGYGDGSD
Assay: LanceUltra kinase activity assay, ROS1-G2032R
Conditions: 2.6 μM ATP
Quantity: pIC50
Expect pIC50 as a plain number equal to -log10 of the molar concentration.

Briefly, pIC50 measured for `C[C@H]1COC(=O)c2cnn3ccc(nc23)N[C@H](C)c2cc(F)ccc2O1` : 9.44

====

// Tmax lookup, one value per entry
Assay: Pharmacokinetic analysis in rats
Format: in vivo, Male SD rats
Details: male, SD, plasma; rat, PO, 5 mg/kg
Answer in min, number only, no unit symbol.

Compound: C[C@H]1COC(=O)c2cnn3ccc(nc23)N[C@H](C)c2cc(F)ccc2O1
Tmax (min): 40

Proceeding to the next compound to report its Tmax.
Consider C[C@H]1CNC(=O)c2cnn3ccc(nc23)N[C@H](C)c2cc(F)ccc2O1 [TPX-0005, reference compound] . Its measured Tmax is 79.8

====

Molecular target: TRKA (Homo sapiens (Human), UniProt P04629)
Sequence (P04629 33-796): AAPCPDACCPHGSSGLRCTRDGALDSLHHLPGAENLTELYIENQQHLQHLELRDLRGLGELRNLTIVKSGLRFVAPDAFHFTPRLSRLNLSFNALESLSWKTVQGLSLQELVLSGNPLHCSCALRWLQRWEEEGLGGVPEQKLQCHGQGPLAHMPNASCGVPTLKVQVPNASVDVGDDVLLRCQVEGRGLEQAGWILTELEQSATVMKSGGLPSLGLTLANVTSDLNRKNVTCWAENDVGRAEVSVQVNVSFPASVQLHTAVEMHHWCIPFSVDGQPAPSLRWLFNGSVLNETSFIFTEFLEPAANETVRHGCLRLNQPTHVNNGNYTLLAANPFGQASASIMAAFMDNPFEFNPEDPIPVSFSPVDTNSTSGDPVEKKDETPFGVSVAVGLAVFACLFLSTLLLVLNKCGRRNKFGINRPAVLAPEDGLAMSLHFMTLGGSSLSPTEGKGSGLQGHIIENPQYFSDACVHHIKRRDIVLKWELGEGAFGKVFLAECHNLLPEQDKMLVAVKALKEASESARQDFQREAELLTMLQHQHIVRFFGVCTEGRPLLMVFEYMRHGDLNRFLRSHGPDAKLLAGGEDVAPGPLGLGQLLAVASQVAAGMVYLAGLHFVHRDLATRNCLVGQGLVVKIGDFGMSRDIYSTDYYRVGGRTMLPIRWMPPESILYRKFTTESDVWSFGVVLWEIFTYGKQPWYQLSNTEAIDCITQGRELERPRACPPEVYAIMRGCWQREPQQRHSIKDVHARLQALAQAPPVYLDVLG
Assay: Mobility shift assay, TRKA kinase
Format: biochemical
Settings: ATP 47.8 μM
Quantity: IC50 (nM)
# value in nM; strip the unit string

Some molecules with known IC50 results, for comparison:
Smiles entry: C[C@H]1COC(=O)c2cnn3ccc(nc23)N[C@H](C)c2cc(F)ccc2O1
Value units: nM
IC50: 0.42
--
Smiles entry: C[C@H]1Nc2ccn3ncc(c3n2)C(=O)OCCOc2ccc(F)cc21
Value units: nM
IC50: 0.62
--
Smiles entry: C[C@H]1Nc2ccn3ncc(c3n2)C(=O)OCCSc2ccc(F)cc21
Value units: nM
IC50: 1.1

Shift focus to the following entry.
Case `C[C@@H]1COc2ccc(F)cc2[C@@H](C)Nc2ccn3ncc(c3n2)C(=O)O1` , TRKA (Homo sapiens (Human), UniProt P04629), IC50 recorded as 0.75

====

Biological target: ALK-L1196M (Homo sapiens (Human), UniProt Q9UM73, L1196M)
Sequence (Q9UM73 19-1620 L1196M): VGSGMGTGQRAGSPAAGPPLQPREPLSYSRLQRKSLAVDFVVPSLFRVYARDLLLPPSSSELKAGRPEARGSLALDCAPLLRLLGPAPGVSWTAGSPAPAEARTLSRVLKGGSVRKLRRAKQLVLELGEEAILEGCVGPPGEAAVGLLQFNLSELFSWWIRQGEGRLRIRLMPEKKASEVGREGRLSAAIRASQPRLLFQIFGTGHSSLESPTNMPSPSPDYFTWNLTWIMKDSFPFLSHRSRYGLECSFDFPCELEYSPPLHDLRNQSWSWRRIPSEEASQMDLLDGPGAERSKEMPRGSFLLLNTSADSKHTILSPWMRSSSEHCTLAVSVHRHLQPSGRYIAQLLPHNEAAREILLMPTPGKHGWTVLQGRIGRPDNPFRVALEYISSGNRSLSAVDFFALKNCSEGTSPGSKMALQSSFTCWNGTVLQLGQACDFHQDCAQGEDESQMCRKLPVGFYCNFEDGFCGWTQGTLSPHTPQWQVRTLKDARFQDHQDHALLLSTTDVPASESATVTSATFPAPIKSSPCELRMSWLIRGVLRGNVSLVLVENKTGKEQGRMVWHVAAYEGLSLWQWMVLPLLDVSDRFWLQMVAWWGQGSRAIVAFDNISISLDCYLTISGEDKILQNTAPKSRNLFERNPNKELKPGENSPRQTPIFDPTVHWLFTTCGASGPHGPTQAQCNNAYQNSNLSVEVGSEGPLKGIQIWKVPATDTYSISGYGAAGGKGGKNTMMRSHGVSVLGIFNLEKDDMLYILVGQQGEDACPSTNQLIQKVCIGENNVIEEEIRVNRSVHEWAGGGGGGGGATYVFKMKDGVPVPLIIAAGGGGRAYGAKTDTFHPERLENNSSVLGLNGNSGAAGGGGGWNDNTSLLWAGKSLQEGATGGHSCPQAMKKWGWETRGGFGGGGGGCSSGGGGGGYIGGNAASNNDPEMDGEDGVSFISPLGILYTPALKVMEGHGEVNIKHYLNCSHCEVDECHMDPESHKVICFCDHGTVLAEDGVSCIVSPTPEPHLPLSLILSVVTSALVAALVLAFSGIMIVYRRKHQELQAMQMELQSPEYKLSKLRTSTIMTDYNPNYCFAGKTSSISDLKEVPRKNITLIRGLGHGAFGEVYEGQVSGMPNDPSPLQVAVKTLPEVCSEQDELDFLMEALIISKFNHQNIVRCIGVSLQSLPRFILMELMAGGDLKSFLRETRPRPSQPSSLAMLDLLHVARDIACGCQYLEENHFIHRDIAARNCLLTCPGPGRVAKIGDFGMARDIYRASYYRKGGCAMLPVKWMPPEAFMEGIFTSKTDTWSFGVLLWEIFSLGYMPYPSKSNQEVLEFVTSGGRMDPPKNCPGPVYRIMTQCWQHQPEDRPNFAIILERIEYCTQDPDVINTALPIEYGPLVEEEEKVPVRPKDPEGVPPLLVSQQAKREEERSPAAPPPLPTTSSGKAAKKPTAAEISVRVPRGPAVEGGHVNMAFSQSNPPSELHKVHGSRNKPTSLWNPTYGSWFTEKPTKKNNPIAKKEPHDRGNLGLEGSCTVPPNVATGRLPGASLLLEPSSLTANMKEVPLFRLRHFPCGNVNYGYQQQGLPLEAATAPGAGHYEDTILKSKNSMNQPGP
Assay: HTRF kinase activity assay, ALK-L1196M
Details: 30 μM ATP
Quantity: pIC50
Field pIC50 (float): negative decimal logarithm of the concentration in molar.

The compound listed as `C[C@H]1COC(=O)c2cnn3ccc(nc23)N[C@H](C)c2cc(F)ccc2O1` shows pIC50 equal to 7.30

====

Experiment: Pharmacokinetic analysis in rats
Type: in vivo, Male SD rats
Details: male, SD, plasma; rat, IV, 1 mg/kg; read-out: Vdss
Quantity: Vd (L/kg)
Quick reminder: number only, in L/kg, skip the unit.

# Vd (compound: `C[C@H]1COC(=O)c2cnn3ccc(nc23)N[C@H](C)c2cc(F)ccc2O1` ) is 4.26
